Source: ChEMBL document CHEMBL1147761

Target sequence: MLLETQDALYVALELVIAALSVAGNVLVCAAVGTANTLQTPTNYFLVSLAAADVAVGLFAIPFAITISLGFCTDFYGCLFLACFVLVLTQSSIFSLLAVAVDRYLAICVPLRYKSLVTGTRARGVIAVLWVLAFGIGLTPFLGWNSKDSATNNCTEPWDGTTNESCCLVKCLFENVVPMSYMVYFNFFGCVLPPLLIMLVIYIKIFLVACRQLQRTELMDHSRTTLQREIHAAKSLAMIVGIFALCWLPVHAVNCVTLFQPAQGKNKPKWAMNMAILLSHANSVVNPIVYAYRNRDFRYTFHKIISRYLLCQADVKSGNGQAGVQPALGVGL
pKi: −log10 of the molar value.
measured.metric: pKi

(1) CCCn1c(=O)c2nc(-c3cnn(Cc4cc(-c5ccccc5C(F)(F)F)on4)c3)[nH]c2n(CCC)c1=O
(2) CCCn1c(=O)c2nc(-c3cnn(Cc4nc(-c5ccccc5)no4)c3)[nH]c2n(CCC)c1=O
[in] Hi, I'm comparing two records. Which one has the lower pKi, 1 or 2 ? To answer, give the label that identifies your chosen option.
[out] 1

(I) CCCn1c(=O)c2nc(-c3cnn(Cc4cc(-c5cccc(Cl)c5)on4)c3)[nH]c2n(CCC)c1=O
(II) CCCn1c(=O)c2[nH]c(-c3cnn(Cc4noc(-c5ccccc5)n4)c3)nc2n(CCC)c1=O
[in] Hi, I'm comparing two records. Which one has the lower pKi, I or II ? To answer, give the label that identifies your chosen option.
[out] I

###

# assay.target: Adenosine receptors; A1 & A2b (Homo sapiens) (UniProt P30542+P29275)
# Sequence (P30542 whole entry, looked up, one chain of several): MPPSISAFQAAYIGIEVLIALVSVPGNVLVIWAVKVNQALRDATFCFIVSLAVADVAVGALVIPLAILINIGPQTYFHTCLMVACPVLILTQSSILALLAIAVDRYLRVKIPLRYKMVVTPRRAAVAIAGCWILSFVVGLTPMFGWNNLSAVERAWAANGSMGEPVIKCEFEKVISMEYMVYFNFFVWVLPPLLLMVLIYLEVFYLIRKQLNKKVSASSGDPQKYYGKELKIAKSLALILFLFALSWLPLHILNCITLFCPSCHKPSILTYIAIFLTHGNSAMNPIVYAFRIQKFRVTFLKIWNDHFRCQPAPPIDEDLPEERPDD
# procedure.summary: Selectivity of adenosine A1 receptor over adenosine A2B receptor
# Format: protein assay
measured.metric: Ratio Ki

Check out these entries, answers already filled in.
smiles.data | assay.target | Ratio Ki
CCCn1c(=O)c2nc(-c3cnn(Cc4noc(-c5ccc(OC)cc5)n4)c3)[nH]c2n(CCC)c1=O | Adenosine receptors; A1 & A2b (Homo sapiens) (UniProt P30542+P29275) | 32
CCCn1c(=O)c2nc(-c3cnn(Cc4nc(-c5cccc(C(F)(F)F)c5)no4)c3)[nH]c2n(CCC)c1=O | Adenosine receptors; A1 & A2b (Homo sapiens) (UniProt P30542+P29275) | 83
CCCn1c(=O)c2nc(-c3cnn(Cc4noc(-c5ccccc5Cl)n4)c3)[nH]c2n(CCC)c1=O | Adenosine receptors; A1 & A2b (Homo sapiens) (UniProt P30542+P29275) | 16

(a) CCCn1c(=O)c2nc(-c3cnn(Cc4nc(-c5ccc(OC)cc5)no4)c3)[nH]c2n(CCC)c1=O
(b) CCCn1c(=O)c2nc(-c3cnn(Cc4noc(-c5ccc(Cl)cc5)n4)c3)[nH]c2n(CCC)c1=O
[in] Which value of Ratio Ki is numerically greater: that of a or that of b ? To answer, give the label that identifies your chosen option.
[out] b

(A) CCCn1c(=O)c2nc(-c3cnn(Cc4nc(-c5cccc(OC)c5)no4)c3)[nH]c2n(CCC)c1=O
(B) CCCn1c(=O)c2[nH]c(-c3cnn(Cc4cc(-c5ccccc5)on4)c3)nc2n(CCC)c1=O
(C) CCCn1c(=O)c2nc(-c3cnn(Cc4nc(-c5ccccc5)no4)c3)[nH]c2n(CCC)c1=O
[in] Put the items in order so that reported Ratio Ki rises from first to last. Record the ranking as a list of labels in the requested order.
[out] A, B, C
(A: 26, B: 107, C: 370)

(a) CCCn1c(=O)c2nc(-c3cnn(Cc4nc(-c5ccccc5OC)no4)c3)[nH]c2n(CCC)c1=O
(b) CCCn1c(=O)c2nc(-c3cnn(Cc4nc(-c5ccccc5Cl)no4)c3)[nH]c2n(CCC)c1=O
(c) CCCn1c(=O)c2nc(-c3cnn(Cc4noc(-c5cccc(OC)c5)n4)c3)[nH]c2n(CCC)c1=O
(d) CCCn1c(=O)c2nc(-c3cnn(Cc4noc(-c5ccc(C#N)cc5)n4)c3)[nH]c2n(CCC)c1=O
(e) CCCn1c(=O)c2nc(-c3cnn(Cc4nc(-c5ccc(C#N)cc5)no4)c3)[nH]c2n(CCC)c1=O
[in] Put the items in order so that reported Ratio Ki rises from first to last. Record the ranking as a list of labels in the requested order.
[out] c, a, d, e, b

(I) CCCn1c(=O)c2nc(-c3cnn(Cc4cc(-c5cccc(OC)c5)on4)c3)[nH]c2n(CCC)c1=O
(II) CCCn1c(=O)c2nc(-c3cnn(Cc4cc(-c5ccc(Cl)cc5)on4)c3)[nH]c2n(CCC)c1=O
[in] Which value of Ratio Ki is numerically greater: that of I or that of II ? To answer, give the label that identifies your chosen option.
[out] I

(1) CCCn1c(=O)c2nc(-c3cnn(Cc4cc(-c5ccc(OC)cc5)on4)c3)[nH]c2n(CCC)c1=O
(2) CCCn1c(=O)c2nc(-c3cnn(Cc4noc(-c5ccccc5C(F)(F)F)n4)c3)[nH]c2n(CCC)c1=O
[in] Hi, I'm comparing two records. Which one has the lower Ratio Ki, 1 or 2 ? To answer, give the label that identifies your chosen option.
[out] 2

(A) CCCn1c(=O)c2nc(-c3cnn(Cc4nc(-c5ccc(Cl)cc5)no4)c3)[nH]c2n(CCC)c1=O
(B) CCCn1c(=O)c2nc(-c3cnn(Cc4nc(-c5cccc(Cl)c5)no4)c3)[nH]c2n(CCC)c1=O
(C) CCCn1c(=O)c2nc(-c3cnn(CC(=O)Nc4ccccc4Cl)c3)[nH]c2n(CCC)c1=O
(D) CCCn1c(=O)c2nc(-c3cnn(Cc4nc(-c5cccc(C)c5)no4)c3)[nH]c2n(CCC)c1=O
(E) CCCn1c(=O)c2nc(-c3cnn(Cc4nc(-c5ccc(C(F)(F)F)cc5)no4)c3)[nH]c2n(CCC)c1=O
[in] Hello, I need these entries ordered by Ratio Ki, highest reading first. Thanks! Record the ranking as a list of labels in the requested order.
[out] E, A, B, D, C
(E: 60, A: 35, B: 20, D: 11, C: 5)

(P) CCCn1c(=O)c2nc(-c3cnn(Cc4cc(-c5ccccc5C(F)(F)F)on4)c3)[nH]c2n(CCC)c1=O
(Q) CCCn1c(=O)c2nc(-c3cnn(Cc4nc(-c5ccc(C)cc5)no4)c3)[nH]c2n(CCC)c1=O
[in] Hi, I'm comparing two records. Which one has the lower Ratio Ki, P or Q ? To answer, give the label that identifies your chosen option.
[out] P

(a) CCCn1c(=O)c2nc(-c3cnn(Cc4nc(-c5ccccc5C(F)(F)F)no4)c3)[nH]c2n(CCC)c1=O
(b) CCCn1c(=O)c2nc(-c3cnn(Cc4noc(-c5cccc(Cl)c5)n4)c3)[nH]c2n(CCC)c1=O
(c) CCCn1c(=O)c2nc(-c3cnn(Cc4noc(-c5ccccc5OC)n4)c3)[nH]c2n(CCC)c1=O
[in] Put the items in order so that reported Ratio Ki rises from first to last. Record the ranking as a list of labels in the requested order.
[out] a, c, b
(a: 7, c: 11, b: 22)

###

Sequence of the target: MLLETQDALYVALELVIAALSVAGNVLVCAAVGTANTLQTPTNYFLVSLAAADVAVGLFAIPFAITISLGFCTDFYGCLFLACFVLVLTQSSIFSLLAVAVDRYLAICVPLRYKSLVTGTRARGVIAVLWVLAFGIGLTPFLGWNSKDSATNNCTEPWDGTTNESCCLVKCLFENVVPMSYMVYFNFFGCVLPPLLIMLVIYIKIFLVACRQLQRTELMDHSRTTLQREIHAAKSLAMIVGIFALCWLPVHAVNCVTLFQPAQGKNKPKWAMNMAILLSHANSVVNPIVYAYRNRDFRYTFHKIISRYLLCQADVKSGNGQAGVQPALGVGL
measured.metric: Ki (nM)

smiles.data | Ki, nM
CCCn1c(=O)c2nc(-c3cnn(Cc4nc(-c5ccc(OC)cc5)no4)c3)[nH]c2n(CCC)c1=O | 106

(P) CCCn1c(=O)c2[nH]c(-c3cnn(Cc4noc(-c5ccccc5Cl)n4)c3)nc2n(CCC)c1=O
(Q) CCCn1c(=O)c2nc(-c3cnn(Cc4nc(-c5ccc(Cl)cc5)no4)c3)[nH]c2n(CCC)c1=O
[in] Which value of Ki is numerically greater: that of P or that of Q ? To answer, give the label that identifies your chosen option.
[out] P
(P: 38 nM, Q: 21 nM)

###

# assay.target: Adenosine receptor A2a (Homo sapiens)
# Sequence (P29274 whole entry): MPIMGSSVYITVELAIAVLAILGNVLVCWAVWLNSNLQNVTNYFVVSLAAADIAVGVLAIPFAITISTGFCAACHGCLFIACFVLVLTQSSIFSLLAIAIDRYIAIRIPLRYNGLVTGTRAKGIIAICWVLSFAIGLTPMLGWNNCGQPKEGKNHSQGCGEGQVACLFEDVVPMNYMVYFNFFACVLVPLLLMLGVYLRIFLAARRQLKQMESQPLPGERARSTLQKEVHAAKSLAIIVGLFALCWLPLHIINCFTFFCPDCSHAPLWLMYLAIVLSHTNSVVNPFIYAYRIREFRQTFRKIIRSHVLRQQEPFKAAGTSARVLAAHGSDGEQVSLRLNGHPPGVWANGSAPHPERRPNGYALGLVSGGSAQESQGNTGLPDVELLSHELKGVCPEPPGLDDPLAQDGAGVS
measured.metric: Ki (nM)

Check out these entries, answers already filled in.
smiles.data | Ki, nM
CCCn1c(=O)c2nc(-c3cnn(Cc4nc(-c5ccc(Cl)cc5)no4)c3)[nH]c2n(CCC)c1=O | 1800
CCCn1c(=O)c2[nH]c(-c3cnn(CC(=O)Nc4ccccc4Cl)c3)nc2n(CCC)c1=O | 1500

(a) CCCn1c(=O)c2[nH]c(-c3cnn(Cc4cc(-c5ccccc5)on4)c3)nc2n(CCC)c1=O
(b) CCCn1c(=O)c2[nH]c(-c3cnn(Cc4noc(-c5ccccc5)n4)c3)nc2n(CCC)c1=O
[in] Hi, I'm comparing two records. Which one has the lower Ki, a or b ? To answer, give the label that identifies your chosen option.
[out] a
